- TEST CONDITIONS: buffer; pH 7.4; 200.0 µM
Would you mind sorting the entries by solubility kinetic according to these classes? range A: < 0.007 mg/mL; range B: ≥ 0.007 mg/mL and < 0.03 mg/mL; range C: ≥ 0.03 mg/mL

>>> label_class("CC(C)=CCN1CCN(Cc2cc3ccccc3[nH]2)CC1CCO (stereo not given)")
"range C"
>>> label_class("CSCCC(NC(=O)C1CCCCC1)c1nc2ccccc2[nH]1 (stereo not given)")
"range B"
>>> label_class("O=C(O)C1CC(=O)N(CCc2ccc(F)cc2)C1 (stereo not given)")
"range C"
>>> label_class("O=C(O)CNS(=O)(=O)Cc1ccccc1")
"range B"
>>> label_class("NC(=O)CN(C/C=C/c1ccccc1)C/C=C/c1ccccc1")
"range B"
>>> label_class("O=S(=O)(CCN1CCSCC1)c1ccccc1")
"range C"
>>> label_class("O=S(=O)(c1ccccc1)N(CC(O)CN1CCCC1)c1ccccc1 (stereo not given)")
"range C"
>>> label_class("O=C(NCCc1ccc(Cl)cc1)c1ccc(Br)s1")
"range A"
>>> label_class("CCOn1c(=O)c(-c2cc(OC)ccc2OC)[n+]([O-])c2ccccc21")
"range C"
>>> label_class("Cc1ccc(OCCNC(=O)CCc2nc3sc4c(c3c(=O)[nH]2)CCCC4)cc1")
"range A"
>>> label_class("Cc1cccn2c(=O)nc(SCC(=O)NCc3ccc(F)cc3)nc12")
"range C"
>>> label_class("O=C(O)c1cccc2c1C(=O)N(c1ccccc1)C2")
"range C"
>>> label_class("CC(Sc1nnc(N)s1)C(=O)Nc1nccs1 (stereo not given)")
"range C"
>>> label_class("COc1ccc(OC)c(Nc2nc(C)nc3c2oc2ccccc23)c1")
"range A"
>>> label_class("CCCNC(=S)N1CCC(Cc2ccccc2)CC1")
"range B"
>>> label_class("COc1ccccc1N1CCN(Cc2ccc(O)c3ncccc23)CC1")
"range B"
>>> label_class("CC1CN(C(=O)COC(=O)c2ccc(F)cc2Cl)CC(C)O1 (stereo not given)")
"range C"
>>> label_class("COc1ccc(OC)c2sc(N3CCc4ccccc4C3)nc12")
"range A"
>>> label_class("O=C(Nc1ccc(F)cc1F)c1ccccc1NC(=O)C1CC=CCC1C(=O)O (stereo not given)")
"range C"
>>> label_class("Cc1cccc(NC(=O)c2ccco2)c1C(=O)O")
"range C"
>>> label_class("COc1cc(N)ccc1-c1cc2ccccc2oc1=O")
"range C"
>>> label_class("CCOc1ccc(/C=N/OCC(=O)Nc2ccc3c(c2)OCO3)cc1")
"range A"
>>> label_class("Cc1cc(C)c(NC(=S)NCCO)c(C)c1")
"range C"
>>> label_class("COc1ccc2ccccc2c1CNC(C)c1ccccc1.O=C(O)C(=O)O (stereo not given)")
"range C"

---

Listed molecules paired with reported solubility kinetic
- TEST CONDITIONS: buffer; pH 7.4; 200.0 µM
OUTCOME MEASURE: solubility kinetic (µg/mL)

>>> assay_result("CCNc1nc(N)c(C(=O)C23CC4CC(CC(C4)C2)C3)s1")
2
>>> assay_result("CCc1ccnc(NS(=O)(=O)c2ccc3c(c2)OCCO3)c1")
7.2
>>> assay_result("CCCC(=O)Nc1cc(C(F)(F)F)ccc1N1CCOCC1")
44.6
>>> assay_result("COc1cc2ccccc2cc1C(=O)NC1CCC(C)CC1 (configuration not stated)")
5
>>> assay_result("CC(C)c1ccc(N2C=Nc3ccc(C(C)C)cc3C2)cc1")
2.8
>>> assay_result("Cc1cc(C)c2c(CN3CCC(C)CC3)cc(=O)oc2c1")
4.3
>>> assay_result("O=c1c2ccccc2nc(/C=C/c2ccc(F)cc2)n1-c1ccccc1O")
5.2

---

- TEST CONDITIONS: buffer; pH 7.4; 200.0 µM
OUTCOME MEASURE: solubility kinetic (µg/mL)

>>> assay_result("O=C(Nc1csc(Cl)c1)c1ccccc1")
6.2
>>> assay_result("Clc1ccc(CN2CCN(c3ccccc3)CC2)cn1")
21
>>> assay_result("COCCn1c(=O)[nH]c2cc(C(=O)Nc3cccc(F)c3)ccc2c1=O")
6.2
>>> assay_result("O=C(Nc1ccc(NC(=O)c2ccccc2O)cc1)Nc1ccc(F)cc1F")
1.1
>>> assay_result("O=c1c2ccccc2ncn1CCOCCOc1ccc([N+](=O)[O-])cc1")
17.1
>>> assay_result("CC(=O)Oc1ccc(C(=O)NCc2ccc3c(c2)OCO3)cc1")
29.1

---

- TEST CONDITIONS: buffer; pH 7.4; 200.0 µM
OUTCOME MEASURE: log10 solubility kinetic (log10 of the value in µg/mL)

>>> assay_result("O=C(COC(=O)c1ccc(F)c(S(=O)(=O)N2CCOCC2)c1)NCc1ccc(Cl)cc1")
0.85
>>> assay_result("COc1cccc(NC(=O)COc2cccnc2[N+](=O)[O-])c1")
0.76
>>> assay_result("Cc1ccc(C(=O)N2CCCC(C(=O)c3cc(F)ccc3F)C2)s1 (stereo unspecified)")
1.72
>>> assay_result("O=C1Nc2ccccc2N=C(c2ccccc2)c2ccccc21")
-0.05
>>> assay_result("Cc1onc(-c2ccccc2)c1NC(=O)Nc1ccc(OC(F)F)cc1")
0.85
>>> assay_result("CN(C(=O)Cn1cc([N+](=O)[O-])ccc1=O)C1CCCCC1")
1.62
>>> assay_result("O=S(=O)(c1ccccc1)N1CCN(C(=S)NCCc2ccccc2)CC1")
-0.30

---

- TEST CONDITIONS: buffer; pH 7.4; 200.0 µM
OUTCOME MEASURE: log10 of solubility kinetic (log10 of the value in µg/mL)

>>> assay_result("COc1ccc(NC2SC(=O)N(C)C2=O)cc1 (configuration not stated)")
1.58
>>> assay_result("CCN(CC)S(=O)(=O)c1ccc(OC)c(N)c1")
1.55
>>> assay_result("Cc1ccc2nc(Cl)c(C#N)cc2c1")
0.34
>>> assay_result("Cc1ccc2nsnc2c1S(=O)(=O)N1CCN(C)CC1")
1.66
>>> assay_result("Nc1ccc(C(=O)Nc2cccc(NC(=O)c3ccc(N)cc3)c2)cc1")
1.54
>>> assay_result("CCC/C(O)=C1\\C(=O)CC(C)(C)CC1=Nc1ccc(OC)cc1")
1.62
>>> assay_result("Cc1ccc(S(=O)(=O)N(C)c2ccc(OC(=O)c3cc(=O)[nH]c4ccccc34)cc2)cc1")
0.43

---

- TEST CONDITIONS: buffer; pH 7.4; 200.0 µM
Below is a list of entries, each paired with its recorded solubility kinetic value.
OUTCOME MEASURE: solubility kinetic (µg/mL)

>>> assay_result("Cc1ccc(-c2noc(COC(=O)c3ccco3)n2)cc1")
8.8
>>> assay_result("CCOC(=O)Cc1csc(NC(=O)Nc2cccc(OC)c2)n1")
5.8
>>> assay_result("O=C(CN1CCCC1)Nc1cccc(Cl)c1Cl")
28.4
>>> assay_result("Cc1noc(C)c1C(=O)OCC(=O)Nc1ccc(N2CCOCC2)cc1")
7.6
>>> assay_result("COc1ccccc1CCC(=O)NCCCn1ccc2ccccc21")
27.2
>>> assay_result("O=C(Nc1ccc(Br)cc1)C1CCCC1")
7
>>> assay_result("Cc1ccc(CNC(=S)Nc2cc(C)ccc2OC(F)F)cc1")
4.7
>>> assay_result("O=C(NC(=S)Nc1ccc(Br)cn1)c1cccnc1")
3
>>> assay_result("Cn1c(N)c(C(=O)COC(=O)c2ccccc2C(F)(F)F)c(=O)n(C)c1=O")
6.3
>>> assay_result("O=C(COC(=O)c1ccccc1Br)NC(=O)NCc1ccccc1")
5.1
>>> assay_result("O=C(COC(=O)COc1ccccc1F)Nc1cccc(S(=O)(=O)N2CCCCC2)c1")
47.8
>>> assay_result("c1ccc(-c2nccnc2-c2ccccc2)cc1")
21.5
>>> assay_result("Cc1onc(-c2ccccc2Cl)c1C(=O)Nc1ccc(Cl)cn1")
1
>>> assay_result("Cc1cccc(N2CCN(S(=O)(=O)c3ccc(Cl)nc3)CC2C)c1 (stereo not given)")
3.6

---

- TEST CONDITIONS: buffer; pH 7.4; 200.0 µM
OUTCOME MEASURE: solubility kinetic (mg/mL)

>>> assay_result("O=S(=O)(NCCc1cccs1)c1ccc(Br)cc1")
0.0363
>>> assay_result("Cc1ccc(C2(c3noc(CN(C)CCO)n3)CCCC2)cc1")
0.0395
>>> assay_result("CNC(=O)c1c(NC(=O)C(C)C)sc2c1CCC2")
0.0365
>>> assay_result("Cc1cc(NCCCOC(C)C)n2c(nc3ccccc32)c1C#N")
0.0014
>>> assay_result("CSc1ccc(CN2CCc3c([nH]c4ccccc34)C2)cc1")
0.002
>>> assay_result("COc1ccc(S(=O)(=O)N2CCCCCC2)cc1NC(=O)Cc1ccc(OC)c(OC)c1")
0.0221
>>> assay_result("COc1ccc(/C=C/C(=O)NC2=NCCS2)cc1OC")
0.0015
>>> assay_result("Cc1cccc(NC(=O)c2ccc3[nH]c(=O)c(=O)[nH]c3c2)n1")
0.0177
>>> assay_result("Cn1c(=NC(=O)C(C)(C)C)sc2cccc(F)c21")
0.001
>>> assay_result("COc1cccc(NC(=O)c2cc(=O)c3ccccc3o2)c1")
0.0019
>>> assay_result("CC(=O)Nc1ccc(/C=C2\\CCc3ccccc3C2=O)cc1")
0.0012
>>> assay_result("COc1nc(C)ccc1-c1noc(-c2cccs2)n1")
0.0025
>>> assay_result("COc1ccc(NC(=O)CCOc2cc(C)ccc2C)cc1S(=O)(=O)N1CCCCC1")
0.0079
>>> assay_result("O=C(NCCNC(=O)c1ccccn1)c1ccccc1")
0.036
>>> assay_result("COc1ccc(C)cc1C(=O)CCC(=O)NC1CCCCC1")
0.0212

Hello, the source for this data is PubChem BioAssay AID1996, in case you need it.
